- System: human δOR (Homo sapiens)
- Construct: host or cells: CHO cells (CHO-hδOR; CHO-hδOR-p22F for the cAMP assay)
- Sequence (P41143 whole entry): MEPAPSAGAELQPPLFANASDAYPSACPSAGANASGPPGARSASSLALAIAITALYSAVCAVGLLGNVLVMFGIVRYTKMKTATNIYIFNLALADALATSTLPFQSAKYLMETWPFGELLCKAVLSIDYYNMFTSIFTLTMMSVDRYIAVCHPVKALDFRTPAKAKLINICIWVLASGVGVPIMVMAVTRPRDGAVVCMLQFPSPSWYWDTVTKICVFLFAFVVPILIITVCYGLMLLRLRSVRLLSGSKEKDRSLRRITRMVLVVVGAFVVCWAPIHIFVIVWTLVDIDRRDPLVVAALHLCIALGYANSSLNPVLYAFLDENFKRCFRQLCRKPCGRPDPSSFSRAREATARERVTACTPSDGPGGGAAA
- Assay name: [35S]GTPγS binding assay, CHO-hδOR membranes
- Type: biochemical
Quantity name: pEC50
pEC50 here is simply -log10 of the concentration when that concentration is written in mol/L.

Molecule: CO[C@@]12CCC(=O)[C@]3(C)Oc4c(O)ccc5c4[C@@]31CCN(CCc1ccccc1)[C@@H]2C5
Reported result: 8.02

Molecule: CO[C@@]12CCC(=O)[C@]3(C)Oc4c(O)ccc5c4[C@@]31CCN(C)[C@@H]2C5 [14-MM (4), 14-methoxymetopon, reference compound]
Reported result: 7.43

Molecule: CO[C@@]12CCC(=O)[C@@H]3Oc4c(O)ccc5c4[C@@]31CCN(CCc1ccccc1)[C@@H]2C5
Reported result: 8.03

--- query ---
Qu. Given CO[C@@]12CCC(=O)[C@@H]3Oc4c(O)ccc5c4[C@@]31CCN(C)[C@@H]2C5 [14-OMO (3), 14-O-methyloxymorphone, reference compound] , respond with its pEC50.
Ans. 7.41
